Please go through the items and note down their PET hydrolysis product formed.
experiment: PET hydrolysis product formed (TPA+MHET+BHET, UV-Vis) per mg enzyme (mmol/mg enzyme); higher = more PET depolymerisation activity; extreme values may be limits of the assay; details: PET substrate: aFilm; 70 °C; pH 6.5; 24 h
Could you respond with only the numeric value?

Exam item: Supply PET hydrolysis product formed value. Item: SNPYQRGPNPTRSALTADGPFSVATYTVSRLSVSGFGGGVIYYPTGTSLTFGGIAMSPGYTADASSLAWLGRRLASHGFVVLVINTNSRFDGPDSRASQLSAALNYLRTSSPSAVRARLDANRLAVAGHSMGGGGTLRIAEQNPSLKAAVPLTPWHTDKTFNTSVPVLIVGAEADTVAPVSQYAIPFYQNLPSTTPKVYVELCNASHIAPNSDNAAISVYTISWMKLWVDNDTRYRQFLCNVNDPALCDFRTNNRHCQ [LCC-A2]
Marked response: 0.361

Exam item: Supply measured PET hydrolysis product formed of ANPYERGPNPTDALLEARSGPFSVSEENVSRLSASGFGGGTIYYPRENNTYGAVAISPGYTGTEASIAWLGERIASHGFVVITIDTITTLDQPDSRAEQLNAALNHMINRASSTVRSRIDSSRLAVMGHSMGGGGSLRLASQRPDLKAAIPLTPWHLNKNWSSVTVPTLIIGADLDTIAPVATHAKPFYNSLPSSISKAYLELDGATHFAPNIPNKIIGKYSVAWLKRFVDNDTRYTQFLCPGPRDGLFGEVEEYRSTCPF [TfCut2] in your reply.
Marked response: 0.0032

Exam item: Please indicate PET hydrolysis product formed recorded for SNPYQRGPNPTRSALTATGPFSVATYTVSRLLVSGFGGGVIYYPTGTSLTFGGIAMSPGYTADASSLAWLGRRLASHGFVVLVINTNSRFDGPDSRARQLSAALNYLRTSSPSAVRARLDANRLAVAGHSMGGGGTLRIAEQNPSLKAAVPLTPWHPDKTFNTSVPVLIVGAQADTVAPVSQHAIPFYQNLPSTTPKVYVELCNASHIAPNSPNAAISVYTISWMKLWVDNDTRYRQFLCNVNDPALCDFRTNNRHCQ [LCC-ICCG I6M]
Marked response: 0.0963

Taken from the supplement of paper PMC11196671.
